Origin of the recorded values: patent US10995101B2

Catalogue of efflux ratio at 120 min, 2 μM readings, one per entry.
Assay: in vitro
Settings: human, Caco-2, pH 7.4
Would you mind answering with just the numeric figure?

Known efflux ratio at 120 min, 2 μM results, listed for orientation:
{"columns": ["compound", "outcome-measure", "result-number"],
 "data": [
  ["Nc1nc2c(sc(=O)n2CCN2CCN(c3ccc(OCCO)cc3)CC2)c2nc(-c3ccco3)nn12", "efflux ratio at 120 min, 2 μM", 8],
  ["Nc1nc2c(sc(=O)n2CCN2CCN(c3ccc(O[C@H]4CC[S@@+]([O-])CC4)cc3F)CC2)c2nc(-c3ccco3)nn12 (single isomer, unassigned)", "efflux ratio at 120 min, 2 μM", 90],
  ["Nc1nc2c(sc(=O)n2CCN2CCN(c3ccc(O[C@H]4CNC[C@@H]4F)cc3F)CC2)c2nc(-c3ccco3)nn12", "efflux ratio at 120 min, 2 μM", 91]
]}

Which efflux ratio at 120 min, 2 μM reading was recorded for the compound NCC(=O)NCCOc1ccc(N2CCN(CCn3c(=O)sc4c3nc(N)n3nc(-c5ccco5)nc43)CC2)c(F)c1 ?
28

Which efflux ratio at 120 min, 2 μM reading was recorded for the compound Nc1nc2c(sc(=O)n2CCN2CCN(c3cc(OCC4COCCN4)c(F)cc3F)CC2)c2nc(-c3ccco3)nn12 (stereo not shown) ?
86

Which efflux ratio at 120 min, 2 μM reading was recorded for the compound N#CCOc1cc(N2CCN(CCn3c(=O)sc4c3nc(N)n3nc(-c5ccco5)nc43)CC2)c(F)cc1F ?
4

Which efflux ratio at 120 min, 2 μM reading was recorded for the compound Nc1nc2c(sc(=O)n2CCN2CCN(c3ccc(O[C@@H]4CNC[C@H]4F)cc3F)CC2)c2nc(-c3ccco3)nn12 ?
81

* * *

Catalogue of IC50 readings, one per entry.
Target: A2A receptor (Homo sapiens, UniProt P29274)
Sequence (P29274 whole entry): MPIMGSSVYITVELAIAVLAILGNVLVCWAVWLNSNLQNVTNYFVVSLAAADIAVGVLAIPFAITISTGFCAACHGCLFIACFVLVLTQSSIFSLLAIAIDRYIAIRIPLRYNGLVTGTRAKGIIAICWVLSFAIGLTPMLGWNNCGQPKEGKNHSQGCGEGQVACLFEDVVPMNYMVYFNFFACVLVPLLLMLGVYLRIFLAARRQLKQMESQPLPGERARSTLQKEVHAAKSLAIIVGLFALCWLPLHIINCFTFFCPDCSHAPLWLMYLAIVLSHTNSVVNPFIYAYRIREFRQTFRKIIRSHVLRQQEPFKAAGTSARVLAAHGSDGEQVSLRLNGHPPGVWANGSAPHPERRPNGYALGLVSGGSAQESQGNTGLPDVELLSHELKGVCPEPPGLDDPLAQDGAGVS
Experiment: Inhibition of cAMP production in HEK cells
Type: cell-based
Conditions: IC50 (nM) (5 nM NECA as agonist, 2% HSA), HEK-293 cells with A2A receptor, 5 nM NECA as agonist, 2% HSA
Output should be the measured figure followed by the unit it is expressed in.

{"columns": ["compound", "outcome-measure", "result"],
 "data": [
  ["CNCCNC(=O)COc1cc(N2CCN(CCn3c(=O)sc4c3nc(N)n3nc(-c5ccco5)nc43)CC2)c(F)cc1F", "IC50", "1 nM"],
  ["NC(=O)COc1cc(N2CCN(CCn3c(=O)sc4c3nc(N)n3nc(-c5ccco5)nc43)CC2)c(F)cc1F", "IC50", "2 nM"],
  ["NC(=O)CNCCOc1ccc(N2CCN(CCn3c(=O)sc4c3nc(N)n3nc(-c5ccco5)nc43)CC2)c(F)c1", "IC50", "3 nM"],
  ["C[C@@H](Oc1cc(N2CCN(CCn3c(=O)sc4c3nc(N)n3nc(-c5ccco5)nc43)CC2)c(F)cc1F)C(=O)O (single isomer, unassigned)", "IC50", "15 nM"],
  ["Nc1nc2c(sc(=O)n2CCN2CCN(c3ccc(C(=O)NCC(O)CO)cc3F)CC2)c2nc(-c3ccco3)nn12 (stereo not shown)", "IC50", "6 nM"],
  ["Nc1nc2c(sc(=O)n2CCN2CCN(c3cc(OCC(=O)O)c(F)cc3F)CC2)c2nc(-c3ccco3)nn12", "IC50", "1 nM"]
]}

Proceed to the following item.
Notebook: pull reported IC50 for A2A receptor (Homo sapiens, UniProt P29274), entry Nc1nc2c(sc(=O)n2CCN2CCN(c3ccc(S(=O)(=O)N4CCNCC4)cc3F)CC2)c2nc(-c3ccco3)nn12
4 nM

* * *

Assay: Concentration in brain and cerebrospinal fluid compared to plasma
Type: in vivo, mice
Conditions: female, Balb-c, mouse, CSF, po, 10 mg/kg, mean of 3 mice, PO 10 mg/kg, 0.500 h; read-out: CSF/Plasma Ratio, Mean
outcome-measure: Kp at 0.5 h

Which Kp at 0.5 h reading was recorded for the molecule NC(=O)COc1cc(N2CCN(CCn3c(=O)sc4c3nc(N)n3nc(-c5ccco5)nc43)CC2)c(F)cc1F ?
< 0.004

* * *

Catalogue of IC50 readings, one per entry.
Molecular target: A2A receptor (Homo sapiens, UniProt P29274)
Assay: Inhibition of cAMP production in HEK cells
Format: cell-based
Conditions: IC50 (nM) (5 μM Adenosine as agonist, 2.0% HSA), HEK-293 cells with A2A receptor, 5 μM Adenosine as agonist, 2.0% HSA
Kindly provide the numeric value in nM only, without the unit symbol.

Known IC50 results, listed for orientation:
{"columns": ["compound", "target-or-system", "IC50 [nM]"],
 "data": [
  ["CS(=O)(=O)CCOc1cc(N2CCN(CCn3c(=O)sc4c3nc(N)n3nc(-c5ccco5)nc43)CC2)c(F)cc1F [Compound 77]", "A2A receptor (Homo sapiens, UniProt P29274)", 158],
  ["CNCCN(C)C(=O)COc1ccc(N2CCN(CCn3c(=O)sc4c3nc(N)n3nc(-c5ccco5)nc43)CC2)c(F)c1 [Compound 58]", "A2A receptor (Homo sapiens, UniProt P29274)", 41],
  ["Nc1nc2c(sc(=O)n2CCN2CCN(c3cc(OC[C@@H](O)CO)c(F)cc3F)CC2)c2nc(-c3ccco3)nn12 [Compound 127]", "A2A receptor (Homo sapiens, UniProt P29274)", 35],
  ["Nc1nc2c(sc(=O)n2CCN2CCN(c3ccc(OCC4CCNCC4)cc3F)CC2)c2nc(-c3ccco3)nn12 [Compound 25]", "A2A receptor (Homo sapiens, UniProt P29274)", 300],
  ["Cc1cc(N2CCN(CCn3c(=O)sc4c3nc(N)n3nc(-c5ccco5)nc43)CC2)c(F)cn1 [Compound 82]", "A2A receptor (Homo sapiens, UniProt P29274)", 15]
]}

Which IC50 reading was recorded for the compound Nc1nc2c(sc(=O)n2CCN2CCN(c3cc(O[C@H]4CC[S@+]([O-])CC4)c(F)cc3F)CC2)c2nc(-c3ccco3)nn12 [Compound 112] ?
53

* * *

Molecular target: A2A receptor (Homo sapiens)
Test: Inhibition of cAMP production in HEK cells
Format: cell-based
Conditions: IC50 (nM) (3 nM NECA as agonist, 0.1% BSA), HEK-293 cells with A2A receptor, 3 nM NECA as agonist, 0.1% BSA
Method: When the A2A receptor is activated, is induces the production of cAMP. HEK-293 cells with a stable transfection of A2A receptor were bought from PerkinElmer® (# ES-011-C). […] Fresh media without the selection marker was added on the day immediately before the experiment to stop selection pressure. […] Compounds of the present invention were diluted 100× in either of the buffers depending on the assay performed. […] The TR-FRET signal was measured after 1 hour using a Spectramax Paradigm (Molecular Devices).
outcome-measure: log10 of IC50 (log10 of the value in nM)
Values below are the log10 of the recorded IC50, with nM as the unit.

Known log10 of IC50 results, listed for orientation:
{"columns": ["molecule", "log10 of IC50"],
 "data": [
  ["CN(C)CCNC(=O)COc1ccc(N2CCN(CCn3c(=O)sc4c3nc(N)n3nc(-c5ccco5)nc43)CC2)c(F)c1", -0.52],
  ["Nc1nc2c(sc(=O)n2CCN2CCN(c3ccc(OCC4CNCCO4)cc3F)CC2)c2nc(-c3ccco3)nn12 (centres unmarked)", -1.00]
]}

Which log10 of IC50 reading was recorded for the molecule Nc1nc2c(sc(=O)n2CCN2CCN(c3cc(O[C@H]4CC[S@@+]([O-])CC4)c(F)cc3F)CC2)c2nc(-c3ccco3)nn12 ?
-0.22

Which log10 of IC50 reading was recorded for the molecule CS(=O)(=O)CCOc1cc(N2CCN(CCn3c(=O)sc4c3nc(N)n3nc(-c5ccco5)nc43)CC2)c(F)cc1F ?
-0.30

Which log10 of IC50 reading was recorded for the molecule Nc1nc2c(sc(=O)n2CCN2CCN(c3ccc(C(=O)NCC4COCCN4)cc3F)CC2)c2nc(-c3ccco3)nn12 (centres unmarked) ?
-1.00

Which log10 of IC50 reading was recorded for the molecule Nc1nc2c(sc(=O)n2CCN2CCN(c3ccc(C(=O)O)cc3F)CC2)c2nc(-c3ccco3)nn12 ?
-0.30

Which log10 of IC50 reading was recorded for the molecule CC(C)[C@H](N)C(=O)NCCOc1ccc(N2CCN(CCn3c(=O)sc4c3nc(N)n3nc(-c5ccco5)nc43)CC2)c(F)c1 ?
0.00

Which log10 of IC50 reading was recorded for the molecule Nc1nc2c(sc(=O)n2CCN2CCN(c3ccc(OC4CCNCC4)cc3F)CC2)c2nc(-c3ccco3)nn12 ?
0.26

* * *

Target: A2A receptor (Homo sapiens, UniProt P29274)
Experiment: Inhibition of cAMP production in HEK cells
Type: cell-based
Conditions: IC50 (nM) (5 nM NECA as agonist, 2% HSA), HEK-293 cells with A2A receptor, 5 nM NECA as agonist, 2% HSA
outcome-measure: IC50 (nM)
Kindly provide the numeric value in nM only, without the unit symbol.

{"columns": ["compound", "result-number"],
 "data": [
  ["CN(C)CCN(C)C(=O)c1cc(N2CCN(CCn3c(=O)sc4c3nc(N)n3nc(-c5ccco5)nc43)CC2)c(F)cc1F [Compound 64]", 1],
  ["Nc1nc2c(sc(=O)n2CCN2CCN(c3ccc(OCCN4CCOCC4)cc3)CC2)c2nc(-c3ccco3)nn12 [Compound 16]", 14],
  ["CC(C)(Oc1cc(N2CCN(CCn3c(=O)sc4c3nc(N)n3nc(-c5ccco5)nc43)CC2)c(F)cc1F)C(=O)O [Compound 59]", 21]
]}

Which IC50 reading was recorded for the compound CN(CCNC(=O)c1ccc(N2CCN(CCn3c(=O)sc4c3nc(N)n3nc(-c5ccco5)nc43)CC2)c(F)c1)C1COC1 [Compound 69] ?
5

Which IC50 reading was recorded for the compound Nc1nc2c(sc(=O)n2CCN2CCN(c3ccc(OCCCC(=O)O)cc3F)CC2)c2nc(-c3ccco3)nn12 [Compound 41] ?
14

Which IC50 reading was recorded for the compound Nc1nc2c(sc(=O)n2CCN2CCN(c3ccc(F)c(OCC(=O)O)c3F)CC2)c2nc(-c3ccco3)nn12 [Compound 42] ?
19

Which IC50 reading was recorded for the compound CCOC(=O)COc1cc(N2CCN(CCn3c(=O)sc4c3nc(N)n3nc(-c5ccco5)nc43)CC2)c(F)cc1F [Compound 73] ?
8
